# Tested on: BT-549 breast
# Experiment summary: NCI-60 one-dose screen, 48 h (100 = growth as untreated, 0 = no growth, -100 = all killed)
# Condition notes: 10 µM
The panel holds about 83,000 compounds, 20% with a hit somewhere; the sample as a whole holds those more often.
Measure name: growth (%)
Respond with the bare value in %.

Take a look at these entries with their results.
Compound	growth / %
CC1(C)OC2=C(CC1Br)C(=O)C(=O)c1ccccc12 (stereo unspecified)	-99.2
CCCCCCc1cc(N=Nc2ccc(S(=O)(=O)Nc3cc(C)nc(C)n3)cc2)c(O)cc1O	89.9
N#CCCN(NC(=O)OCc1ccccc1)C(=O)OCc1ccccc1	109
CN(C)c1ccc(Cc2ccc(N(C)C)cc2Cl)c(Cl)c1	136
C/C(=N\Nc1nc2ccccc2s1)c1ccncn1	46.3

I'd like to know its growth. The compound in question is C#Cc1ccc(-n2c(/C=C/c3ccc(O)c(OC)c3)nc3ncccc3c2=O)cc1
95.5

----------
# Test system: SK-OV-3 ovarian
# Experiment summary: NCI-60 one-dose screen, 48 h (100 = growth as untreated, 0 = no growth, -100 = all killed)
# Condition notes: 10 µM
Compounds without any hit were thinned out: in the full panel of roughly 83,000, 20% have a hit. Activity calls are given as the source filed them. How the source made its calls: active means growth percent below 10; inactive means the rest.
Measured growth values are reported for all entries that follow.

Take a look at these entries with their results.
Molecule	Target or test system	growth
CNc1ncc(-c2ccc(C(F)(F)F)cc2)c(NC2CCCCCC2)n1	SK-OV-3 ovarian	83% (inactive)
O=C(O)CN1C(=O)c2cccc3cccc(c23)C1=O	SK-OV-3 ovarian	94% (inactive)
Cn1c([N+](=O)[O-])cnc1/C=C1\Oc2ccc(Cl)cc2C1=O	SK-OV-3 ovarian	-10.2% (active)
COc1ccc(-c2nc3ncccn3c2-c2nnc(-c3ccsc3C)o2)cc1	SK-OV-3 ovarian	54.4% (inactive)
CC12O[C@H](C[C@@H](OC(=O)c3ccccc3)[C@H]1O)n1c3ccccc3c3c4c(c5c6ccccc6n2c5c31)C(=O)NC4=O	SK-OV-3 ovarian	12.6% (inactive)
Cc1ccc(Nc2cc(C)nc(NCCCNc3ccnc4cc(Cl)ccc34)n2)cc1	SK-OV-3 ovarian	-47.5% (active)
CC(C)(C)c1cc(Br)cc(C(C)(C)C)c1O	SK-OV-3 ovarian	101% (inactive)
Nc1c(C(=O)Nc2cccc3ccccc23)sc2nc3c(cc12)C(=O)CCC3	SK-OV-3 ovarian	5.64% (active)
COc1ccc(OC)c(NC(=O)c2sc3nc4c(cc3c2N)C(=O)CCC4)c1	SK-OV-3 ovarian	44.7% (inactive)
COc1ccc(-c2ccc3cc(C(=O)Nc4ccc(O)c(C(=O)/C=C/c5cc(OC)c(OC)c(OC)c5)c4)ccc3c2)cc1	SK-OV-3 ovarian	109% (inactive)

I'd like to know its growth. The molecule in question is CCC(=O)N1C/C(=C/c2ccc(Br)cc2)C(=O)/C(=C/c2ccc(Br)cc2)C1
-30.6% (active)

I'd like to know its growth. The molecule in question is Cc1[nH]nc2c1C(c1cnn(C)c1)C(C#N)=C(N)O2 (configuration not stated)
103% (inactive)

I'd like to know its growth. The molecule in question is O=C(CNC(=O)OCc1ccccc1)NCC(=O)Oc1ccc([N+](=O)[O-])cc1
100% (inactive)

----------
# System: 786-0 renal
# Experiment summary: NCI-60 one-dose screen, 48 h (100 = growth as untreated, 0 = no growth, -100 = all killed)
# Condition notes: 10 µM
The panel holds about 83,000 compounds, 20% with a hit somewhere; the sample as a whole holds those more often.
Please use yes (1) whenever growth is not below 90%, and no (0) whenever it is.

Smiles notation	Assigned class
O=[N+]([O-])c1ccc(Oc2cccnc2)c([N+](=O)[O-])c1	yes (1)
CC12O[C@H](C[C@@H](O)[C@H]1O)n1c3ccccc3c3c4c(c5c6ccccc6n2c5c31)C(=O)N(CCCN)C4=O	no (0)
COc1ccc(OC)c(/C=C/c2nc(SCc3ccccc3)n(-c3ccc(Cl)cc3)n2)c1	no (0)

growth >= 90% for Cc1ccc(Nc2cc(C)nc(NCCCNc3ccnc4cc(Cl)ccc34)n2)cc1 ?
no (0)

----------
# Tested on: OVCAR-4 ovarian
# Experiment summary: NCI-60 one-dose screen, 48 h (100 = growth as untreated, 0 = no growth, -100 = all killed)
# Condition notes: 10 µM
This is part of a sample that, as a whole, favours compounds with a hit. Of some 83,000 tested, about 20% had one in any assay.
Category key, based on recorded growth: low: < 50%; intermediate: ≥ 50% and < 90%; high: ≥ 90%

Look over these answered cases.
Compound	Target or test system	Assigned class
Fc1cc(C(F)(F)F)ccc1-c1cncnc1NC1CCCCCC1	OVCAR-4 ovarian	intermediate
O=C(Nc1ccc(CO)cc1)c1ccccc1Nc1ccnc(C(F)(F)F)c1	OVCAR-4 ovarian	high
COc1cc(Nc2ccnc(NCCNc3ccnc4cc(Cl)ccc34)n2)cc(OC)c1	OVCAR-4 ovarian	low
O=C(O)CN1C(=O)c2cccc3cccc(c23)C1=O	OVCAR-4 ovarian	high

Hi there! Could you help me figure out the category for CCN1CCCC1CNC(=O)c1ncc(-c2ccc(C(F)(F)F)cc2)c(NC2CCCCCC2)n1 (stereo not drawn) please?
intermediate

Hi there! Could you help me figure out the category for N#Cc1ncc(-c2cc(F)c(F)c(F)c2)c(NC2CCCCCC2)n1 please?
intermediate

----------
# System: DU-145 prostate
# Experiment summary: NCI-60 one-dose screen, 48 h (100 = growth as untreated, 0 = no growth, -100 = all killed)
# Condition notes: 10 µM
Compounds without any hit were thinned out: in the full panel of roughly 83,000, 20% have a hit.
Measured growth values are reported for all entries that follow.
Respond with the bare value in %.

Smiles notation	Readout units	Reading
CC(C)(C#N)Nc1ccccc1	%	118

I'd like to know its growth. The compound in question is COc1ccc(/C(=C2\O[C@@H]([C@H]3COC(C)(C)O3)[C@H]3OC(C)(C)O[C@@H]23)c2cc(OC)c(OC)c(OC)c2)cc1O
34.8

I'd like to know its growth. The compound in question is O=C(Nc1ccncc1)C(=O)c1cn(S(=O)(=O)c2cccc3ccccc23)c2ccccc12
95.1

I'd like to know its growth. The compound in question is COc1cc(CNc2ccccc2C(=O)N2CCN(C(=O)c3cc(-c4cc(OC)c(OC)c(OC)c4)n4nc(-c5ccccc5)cc4n3)CC2)cc(OC)c1OC
67.7

I'd like to know its growth. The compound in question is COc1cc(-c2nc(-c3nnc(-c4ccc(F)c(Cl)c4)o3)c3ccccn23)cc(OC)c1OC
41

----------
# Test system: SK-MEL-5 melanoma
# Experiment summary: NCI-60 one-dose screen, 48 h (100 = growth as untreated, 0 = no growth, -100 = all killed)
# Condition notes: 10 µM
# Description: Growth inhibition of the SK-MEL-5 human tumor cell line is measured as a screen for anti-cancer activity. Cells are grown in 96 well plates and exposed to the test compound for 48 hours. Compounds are tested at a single concentration, which is 10^-5 M for most compounds. The reported endpoint is percent growth (GI% or GIPRCNT), where numbers from 0 - 100% represent growth inhibition, and numbers from -100% - 0 represent cell death. For example, a value of 40 represents 60% growth inhibition. […]
This is part of a sample that, as a whole, favours compounds with a hit. Of some 83,000 tested, about 20% had one in any assay.
Measure name: growth (%)
Respond with the bare value in %.

Take a look at these entries with their results.
Smiles notation	growth, %
COc1ccc(Nc2cc(C)nc(NCCCNc3ccnc4cc(Cl)ccc34)n2)cc1	-100
CC(C)(C)NC/C(=C\c1ccccc1)C(=O)c1ccccc1	-66.9
CCCCOc1ccc(NC(=O)Nc2nnc(C)s2)cc1	102

Hi! What's the reported growth for COc1ccc(-c2cc(-c3cccc(NS(C)(=O)=O)c3)nc(N)c2C#N)cc1 on SK-MEL-5 melanoma?
13.6

Hi! What's the reported growth for CSc1nc(=O)n(Cc2ccc(Cl)cc2)c(=O)[nH]1 on SK-MEL-5 melanoma?
110

Hi! What's the reported growth for COc1ccc(-c2nn(-c3cccc(NC(=O)Nc4cccc(C(F)(F)F)c4)c3)cc2-c2ccncc2)cc1Cl on SK-MEL-5 melanoma?
2.68

----------
# Tested on: HOP-62 NSCLC
# Experiment summary: NCI-60 one-dose screen, 48 h (100 = growth as untreated, 0 = no growth, -100 = all killed)
# Condition notes: 10 µM
About 83,000 compounds went through this panel and 20% of them were active in at least one assay; those are over-represented in the sample as a whole.
growth strictly under 30% means Criterion met; at 30% or over means Criterion not met.

Compound	Target or test system	Assigned class
COc1ccc(-c2ccc3cc(C(=O)Nc4ccc(O)c(C(=O)/C=C/c5cc(OC)c(OC)c(OC)c5)c4)ccc3c2)cc1	HOP-62 NSCLC	Criterion not met
c1ccc2c(c1)oc1c3c(ccc12)NCCC3	HOP-62 NSCLC	Criterion not met
CCc1ccc2c(c1)N(CCO)C1=C(C(=O)OC1)C2c1cc(OC)c(OC)c(OC)c1 (stereo not given)	HOP-62 NSCLC	Criterion met
Nc1c(C(=O)Nc2ccccc2)sc2nc3c(cc12)C(O)CCC3 (stereo not given)	HOP-62 NSCLC	Criterion met

API: the following record is the query input.
Could you please tell me whether growth recorded for CCCCCCCCCCCCCCCCCC(=O)OCCCCCCC is less than 30%?
Criterion not met
